Target: EPHB1 (UniProt P54762)
Sequence (P54762 whole entry, looked up): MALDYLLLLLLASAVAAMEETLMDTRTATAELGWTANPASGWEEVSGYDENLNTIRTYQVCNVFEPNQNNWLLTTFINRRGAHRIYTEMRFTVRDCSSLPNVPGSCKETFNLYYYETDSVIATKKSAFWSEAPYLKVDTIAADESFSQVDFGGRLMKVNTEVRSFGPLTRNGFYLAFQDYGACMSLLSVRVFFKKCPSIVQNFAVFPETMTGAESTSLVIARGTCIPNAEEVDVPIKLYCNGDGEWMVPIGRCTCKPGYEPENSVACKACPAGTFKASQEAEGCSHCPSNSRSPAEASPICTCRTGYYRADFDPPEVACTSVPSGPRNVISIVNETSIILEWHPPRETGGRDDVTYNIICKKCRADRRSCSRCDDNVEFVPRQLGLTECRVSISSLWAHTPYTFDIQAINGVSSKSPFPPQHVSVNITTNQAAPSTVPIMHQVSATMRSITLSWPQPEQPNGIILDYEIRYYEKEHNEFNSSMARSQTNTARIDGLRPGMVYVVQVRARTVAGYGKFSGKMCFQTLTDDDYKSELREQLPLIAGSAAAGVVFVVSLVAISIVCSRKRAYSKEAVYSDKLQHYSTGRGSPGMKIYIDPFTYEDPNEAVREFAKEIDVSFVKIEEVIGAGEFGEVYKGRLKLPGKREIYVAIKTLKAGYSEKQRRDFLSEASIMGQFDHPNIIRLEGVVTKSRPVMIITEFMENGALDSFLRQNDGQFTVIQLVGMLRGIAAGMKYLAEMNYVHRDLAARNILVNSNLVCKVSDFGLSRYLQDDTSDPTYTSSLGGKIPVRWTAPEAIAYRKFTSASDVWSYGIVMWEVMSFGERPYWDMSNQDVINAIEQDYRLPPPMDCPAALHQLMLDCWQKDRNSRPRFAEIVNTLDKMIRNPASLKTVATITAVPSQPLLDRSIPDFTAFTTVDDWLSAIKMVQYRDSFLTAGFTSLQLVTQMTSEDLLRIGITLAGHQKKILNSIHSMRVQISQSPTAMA
Assay: phosphorylation enrichment, bacterial display (enrichment ratio); higher = better substrate or ligand; peptides without Tyr show the background;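 further: 11-residue human phosphosite peptides and single-mutation variants displayed on the E. coli surface, counted by deep sequencing, each peptide's frequency after selection divided by its frequency in the unselected input library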;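 further: frequency after pTyr selection over input frequency; kinase dosed for 20-30% of maximal phosphorylation in three min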
Please respond with reported phosphorylation enrichment for every item in the list.
# print the numeric value only

Determine from records and report phosphorylation enrichment for GAVGHYVLAER [HFE_Y342_M339V]
0.395

Determine from records and report phosphorylation enrichment for RMLRKYQELMS [KRT74_Y425_E424K]
0.419

Determine from records and report phosphorylation enrichment for SVVVPYGPPEV [TP53_Y220_E221G]
0.472

Determine from records and report phosphorylation enrichment for KGVDRYNPENL [EIF3K_Y21_I18V]
0.35

Determine from records and report phosphorylation enrichment for INMKEYCKKDF [NTN1_Y490_K489E_YF]
0.66

Determine from records and report phosphorylation enrichment for DYYDLYGGEKL [PTPN11_Y66_F71L]
7.36

Determine from records and report phosphorylation enrichment for TRSFKYLLLSM [NF1_Y491_YF]
0.663

Determine from records and report phosphorylation enrichment for GTHCHYKAPTV [FZD9_Y569]
0.421

Determine from records and report phosphorylation enrichment for ENFDDYMKDVG [FABP4_Y20_E23D]
0.635

Determine from records and report phosphorylation enrichment for TSAEGYQDVRD [ABLIM1_Y439_P434T]
0.73

Determine from records and report phosphorylation enrichment for ANVKWYRSGRE
0.401

Determine from records and report phosphorylation enrichment for AFEQQYSPIPK [NOX1_Y373_R378K]
0.766

Determine from records and report phosphorylation enrichment for NGEDPYAGSTD [XRCC1_Y515]
0.431

* * *

Target: MERTK (UniProt Q12866)
Sequence (Q12866 whole entry, looked up): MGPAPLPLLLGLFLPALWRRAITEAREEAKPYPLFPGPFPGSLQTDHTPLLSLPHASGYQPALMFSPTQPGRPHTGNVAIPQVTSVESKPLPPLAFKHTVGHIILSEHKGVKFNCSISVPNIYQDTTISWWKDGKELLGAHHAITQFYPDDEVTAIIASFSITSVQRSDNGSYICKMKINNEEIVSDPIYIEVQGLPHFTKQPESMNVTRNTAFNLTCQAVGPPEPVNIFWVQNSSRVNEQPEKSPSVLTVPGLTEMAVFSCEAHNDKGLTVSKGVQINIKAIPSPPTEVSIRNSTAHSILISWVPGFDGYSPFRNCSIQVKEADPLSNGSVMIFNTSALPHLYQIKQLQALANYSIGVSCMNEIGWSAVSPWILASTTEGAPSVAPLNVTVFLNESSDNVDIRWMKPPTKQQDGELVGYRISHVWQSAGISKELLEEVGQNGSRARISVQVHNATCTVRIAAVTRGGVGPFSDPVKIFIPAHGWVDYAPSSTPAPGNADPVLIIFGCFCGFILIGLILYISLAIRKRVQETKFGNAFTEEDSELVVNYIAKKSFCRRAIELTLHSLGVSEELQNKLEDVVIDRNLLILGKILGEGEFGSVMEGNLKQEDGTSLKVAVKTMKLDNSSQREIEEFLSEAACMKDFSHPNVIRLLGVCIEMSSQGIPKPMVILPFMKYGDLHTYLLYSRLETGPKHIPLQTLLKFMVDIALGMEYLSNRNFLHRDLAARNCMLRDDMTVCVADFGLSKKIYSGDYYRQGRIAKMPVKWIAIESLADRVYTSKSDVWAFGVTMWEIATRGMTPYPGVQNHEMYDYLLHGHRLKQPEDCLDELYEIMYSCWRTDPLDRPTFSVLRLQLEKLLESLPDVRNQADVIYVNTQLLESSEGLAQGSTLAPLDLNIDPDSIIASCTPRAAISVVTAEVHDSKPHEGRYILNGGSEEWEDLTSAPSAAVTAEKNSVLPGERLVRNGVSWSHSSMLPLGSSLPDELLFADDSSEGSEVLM
Test: phosphorylation enrichment, bacterial display (enrichment ratio); higher = better substrate or ligand; peptides without Tyr show the background
measuredMetric: phosphorylation enrichment
# print the numeric value only

Determine from records and report phosphorylation enrichment for DAGTDYVGISC [FREM2_Y2061_R2066C]
0.4

Determine from records and report phosphorylation enrichment for PMWHPYKVDVT [TP53TG5_Y255]
0.398

Determine from records and report phosphorylation enrichment for SAVVPYEPPEV [TP53_Y220_V216A]
0.409

* * *

Biological target: FGFR1 (UniProt P11362)
Sequence (P11362 whole entry, looked up): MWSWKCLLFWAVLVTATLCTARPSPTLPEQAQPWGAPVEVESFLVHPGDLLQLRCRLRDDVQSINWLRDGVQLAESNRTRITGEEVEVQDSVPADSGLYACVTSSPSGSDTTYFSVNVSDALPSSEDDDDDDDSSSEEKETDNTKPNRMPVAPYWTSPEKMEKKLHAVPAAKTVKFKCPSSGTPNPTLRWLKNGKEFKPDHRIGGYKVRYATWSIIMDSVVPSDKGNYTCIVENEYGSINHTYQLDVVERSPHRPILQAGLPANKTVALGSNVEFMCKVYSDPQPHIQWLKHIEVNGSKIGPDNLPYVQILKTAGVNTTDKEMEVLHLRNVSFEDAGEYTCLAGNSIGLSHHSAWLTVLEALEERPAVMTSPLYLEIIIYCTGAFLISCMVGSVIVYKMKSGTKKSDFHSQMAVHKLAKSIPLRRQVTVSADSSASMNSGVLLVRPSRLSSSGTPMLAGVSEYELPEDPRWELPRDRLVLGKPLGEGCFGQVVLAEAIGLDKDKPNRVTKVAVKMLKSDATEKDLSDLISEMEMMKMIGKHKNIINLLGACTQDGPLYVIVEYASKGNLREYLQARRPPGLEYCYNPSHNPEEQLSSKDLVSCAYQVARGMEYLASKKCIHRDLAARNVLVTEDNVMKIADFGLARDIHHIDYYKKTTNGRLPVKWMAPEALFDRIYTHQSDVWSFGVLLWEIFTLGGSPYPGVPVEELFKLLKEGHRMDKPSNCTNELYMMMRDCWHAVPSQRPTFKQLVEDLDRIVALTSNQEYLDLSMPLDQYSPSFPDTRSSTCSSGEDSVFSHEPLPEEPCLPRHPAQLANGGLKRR
Test: phosphorylation enrichment, bacterial display (enrichment ratio); higher = better substrate or ligand; peptides without Tyr show the background
Please respond with reported phosphorylation enrichment for every item in the list.
# print the numeric value only

Determine from records and report phosphorylation enrichment for GTHCHYKAPTV [FZD9_Y569]
0.493

Determine from records and report phosphorylation enrichment for EIRTQDEAMAS [GFAP_Y242_Y242D]
0.498

Determine from records and report phosphorylation enrichment for MGSFNYLGFAR [SPTLC2_Y178_YF]
0.504

* * *

Biological target: EPHB1 (UniProt P54762)
Test: phosphorylation enrichment, bacterial display (enrichment ratio); higher = better substrate or ligand; peptides without Tyr show the background
Record label 1 whenever phosphorylation enrichment is at 0.5 or higher; record label 0 when lower.

Is the recorded value of phosphorylation enrichment equal to or greater than 0.5 for this sequence? LIGRRYDDPEV [HSPA9_Y128]
label 1

Is the recorded value of phosphorylation enrichment equal to or greater than 0.5 for this sequence? LFMGDYVDRGF [PPP2CA_Y86_YF]
label 1

Is the recorded value of phosphorylation enrichment equal to or greater than 0.5 for this sequence? SHSMRYFSTAV [HLA-C_Y31_D33S]
label 0

Is the recorded value of phosphorylation enrichment equal to or greater than 0.5 for this sequence? ILGTFYETGSI [PAX2_Y73_R71T_YF]
label 0

Is the recorded value of phosphorylation enrichment equal to or greater than 0.5 for this sequence? RESSGYLRLAF [MEP1A_Y481]
label 1

Is the recorded value of phosphorylation enrichment equal to or greater than 0.5 for this sequence? TTIVSYRASQP [MKI67_Y1737_K1734I]
label 0

Is the recorded value of phosphorylation enrichment equal to or greater than 0.5 for this sequence? EKKQTYGSCRK [LACTB_Y473_R469K]
label 0

Is the recorded value of phosphorylation enrichment equal to or greater than 0.5 for this sequence? PELINYHQHNS [BTK_Y361]
label 1

Is the recorded value of phosphorylation enrichment equal to or greater than 0.5 for this sequence? PVQAAYQKVEA [HBB_Y131_V135E]
label 1

Is the recorded value of phosphorylation enrichment equal to or greater than 0.5 for this sequence? QFLMKYVRSAS [ABCD1_Y337_W339R]
label 1

Is the recorded value of phosphorylation enrichment equal to or greater than 0.5 for this sequence? QSHKVYVQHLL [POR_Y604]
label 0

Is the recorded value of phosphorylation enrichment equal to or greater than 0.5 for this sequence? KFADVYVGICL [B3GALNT1_Y269_E266A]
label 1

Is the recorded value of phosphorylation enrichment equal to or greater than 0.5 for this sequence? SPFMLYQFLKQ [RPAP3_Y567_D564Y_YF]
label 1

Is the recorded value of phosphorylation enrichment equal to or greater than 0.5 for this sequence? MGSFNYLGFPR [SPTLC2_Y178_A182P_YF]
label 1

Is the recorded value of phosphorylation enrichment equal to or greater than 0.5 for this sequence? PYYASYPPSPD [GDAP2_Y491_T489A]
label 1

Is the recorded value of phosphorylation enrichment equal to or greater than 0.5 for this sequence? PGVNFYFQVSA
label 1

Is the recorded value of phosphorylation enrichment equal to or greater than 0.5 for this sequence? YPPDGYSRHCE [CTNND1_Y213_Y217C]
label 0

Is the recorded value of phosphorylation enrichment equal to or greater than 0.5 for this sequence? VEKGSYSALRA [ABCC2_Y845_L849R]
label 0

Is the recorded value of phosphorylation enrichment equal to or greater than 0.5 for this sequence? IRTIDYRYTVS [IDS_Y497_W502S]
label 0

Is the recorded value of phosphorylation enrichment equal to or greater than 0.5 for this sequence? RGLQVYHKRNA [LRP2_Y2010_R2012K]
label 0

Is the recorded value of phosphorylation enrichment equal to or greater than 0.5 for this sequence? VRTSKYRGGGG [HBA1_Y141_L137R]
label 0

Is the recorded value of phosphorylation enrichment equal to or greater than 0.5 for this sequence? GISDEYHVIRH [GCDH_Y398]
label 0

Is the recorded value of phosphorylation enrichment equal to or greater than 0.5 for this sequence? DFFDLYGGQKF [PTPN11_Y66_E69Q_YF]
label 0

Is the recorded value of phosphorylation enrichment equal to or greater than 0.5 for this sequence? GKGGSYSKAES [HLA-E_Y341_W346S]
label 0

Is the recorded value of phosphorylation enrichment equal to or greater than 0.5 for this sequence? SVVVPYEPTEV [TP53_Y220_P223T]
label 1

Is the recorded value of phosphorylation enrichment equal to or greater than 0.5 for this sequence? EEDPEYKKKFR [FAM161A_Y278]
label 0

Is the recorded value of phosphorylation enrichment equal to or greater than 0.5 for this sequence? LIHLHYIRRDY [BBS4_Y43_K46R]
label 0

Is the recorded value of phosphorylation enrichment equal to or greater than 0.5 for this sequence? DVFLKYLNFAT [PDE6B_Y212]
label 1

Is the recorded value of phosphorylation enrichment equal to or greater than 0.5 for this sequence? SRLSAYPALEG [CD5_Y465_H461R]
label 0

Is the recorded value of phosphorylation enrichment equal to or greater than 0.5 for this sequence? EVKAQYEDIAQ [KRT1_Y358]
label 1

Is the recorded value of phosphorylation enrichment equal to or greater than 0.5 for this sequence? LYSINYLHFGD [KDM4C_Y201_E206D]
label 1

Is the recorded value of phosphorylation enrichment equal to or greater than 0.5 for this sequence? VKMLLYTEVTR [GDI1_Y93]
label 1

Is the recorded value of phosphorylation enrichment equal to or greater than 0.5 for this sequence? VTSLKYSTSPF [BRIP1_Y916_YF]
label 0

Is the recorded value of phosphorylation enrichment equal to or greater than 0.5 for this sequence? FPLAEYTEVKT [ALDH1A3_Y497_A493P_YF]
label 1

Is the recorded value of phosphorylation enrichment equal to or greater than 0.5 for this sequence? QEGPEYWDQNT [HLA-A_Y83_E87N]
label 1

Is the recorded value of phosphorylation enrichment equal to or greater than 0.5 for this sequence? GIVEEYQLPYY [BMPR1A_Y453]
label 1

Is the recorded value of phosphorylation enrichment equal to or greater than 0.5 for this sequence? QSSALYEDHYL [ASS1_Y83_R86H]
label 1

Is the recorded value of phosphorylation enrichment equal to or greater than 0.5 for this sequence? LWPIWYRCHRP [MRGPRX1_Y130]
label 1

Is the recorded value of phosphorylation enrichment equal to or greater than 0.5 for this sequence? NLDRFYQQVTK [SEC16A_Y1041]
label 1

Is the recorded value of phosphorylation enrichment equal to or greater than 0.5 for this sequence? DRLASNLDKVR [KRT10_Y160_Y160N]
label 0

Is the recorded value of phosphorylation enrichment equal to or greater than 0.5 for this sequence? FPRAWYRRSIA [KIAA1109_Y4272]
label 0

Is the recorded value of phosphorylation enrichment equal to or greater than 0.5 for this sequence? QMWLKYSQSDL [SMC1A_Y714_R711W]
label 1

Is the recorded value of phosphorylation enrichment equal to or greater than 0.5 for this sequence? IYRASYVPFAA [RBM47_Y541_G538R]
label 1

meta.source: the supplement of paper PMC10065799
